assay.target: human enzyme NAMPT (full length) (Homo sapiens)
Construct: human enzyme NAMPT (full length)
protocol.text: NMN fluorescence biochemical assay (stimulation of NMN synthesis by NAMPT)
applied.conditions: fold change of maximal activation compared to DMSO
observable: Enzymatic Emax

[
  {
    "compound": "O=C1c2ccccc2C(Cc2ncccc2C2CC2)N1Cc1ccc2[nH]c(=O)oc2c1 (stereo not drawn) [Compound 184]",
    "assay.target": "human enzyme NAMPT (full length) (Homo sapiens)",
    "result": "B (3≥B>2)"
  },
  {
    "compound": "Cc1ccccc1CC1c2cccnc2C(=O)N1Cc1ccc2[nH]c(=O)oc2c1 (stereo not drawn) [Compound 160]",
    "assay.target": "human enzyme NAMPT (full length) (Homo sapiens)",
    "result": "B (3≥B>2)"
  },
  {
    "compound": "COc1ccc(CN2C(=O)c3ccccc3C2Cc2c(C#N)ccnc2C#N)cc1 (stereo not drawn) [Compound 590]",
    "assay.target": "human enzyme NAMPT (full length) (Homo sapiens)",
    "result": "B (3≥B>2)"
  },
  {
    "compound": "Cc1cncc(C#N)c1CC1c2ccccc2C(=O)N1CC1CC2(CNC(=O)O2)C1 (stereo not drawn) [Compound 492]",
    "assay.target": "human enzyme NAMPT (full length) (Homo sapiens)",
    "result": "B (3≥B>2)"
  },
  {
    "compound": "Cc1ncnc(C#N)c1CC1c2ccccc2C(=O)N1CC1CC2(CNC(=O)O2)C1 (stereo not drawn) [Compound 491]",
    "assay.target": "human enzyme NAMPT (full length) (Homo sapiens)",
    "result": "B (3≥B>2)"
  }
]

State its Enzymatic Emax on human enzyme NAMPT (full length) (Homo sapiens): O=C1c2ccccc2C(Cc2ncccc2Br)N1Cc1ccn2c(=O)[nH]nc2c1 (stereo not drawn) [Compound 281]
C (2≥C)

State its Enzymatic Emax on human enzyme NAMPT (full length) (Homo sapiens): Cc1c(CC2c3ccccc3C(=O)N2Cc2ccc3[nH]nnc3c2)c(C#N)nn1C (stereo not drawn) [Compound 393]
B (3≥B>2)

State its Enzymatic Emax on human enzyme NAMPT (full length) (Homo sapiens): Cc1cccc2c1C(=O)N(Cc1ccc(O)cc1)C2=O [Compound 295]
C (2≥C)

State its Enzymatic Emax on human enzyme NAMPT (full length) (Homo sapiens): CN(C)c1nn(C)c(CC2c3ccccc3C(=O)N2Cc2ccc3[nH]nnc3c2)c1Cl (stereo not drawn) [Compound 420]
B (3≥B>2)

State its Enzymatic Emax on human enzyme NAMPT (full length) (Homo sapiens): Cn1ncc(Cl)c1CC1c2ccccc2C(=O)N1Cc1c[nH]c(=O)s1 (stereo not drawn) [Compound 592]
A (A>3)

====

assay.target: human enzyme NAMPT (full length) (Homo sapiens, UniProt P43490)
Construct: human enzyme NAMPT (full length)
Sequence (P43490 whole entry): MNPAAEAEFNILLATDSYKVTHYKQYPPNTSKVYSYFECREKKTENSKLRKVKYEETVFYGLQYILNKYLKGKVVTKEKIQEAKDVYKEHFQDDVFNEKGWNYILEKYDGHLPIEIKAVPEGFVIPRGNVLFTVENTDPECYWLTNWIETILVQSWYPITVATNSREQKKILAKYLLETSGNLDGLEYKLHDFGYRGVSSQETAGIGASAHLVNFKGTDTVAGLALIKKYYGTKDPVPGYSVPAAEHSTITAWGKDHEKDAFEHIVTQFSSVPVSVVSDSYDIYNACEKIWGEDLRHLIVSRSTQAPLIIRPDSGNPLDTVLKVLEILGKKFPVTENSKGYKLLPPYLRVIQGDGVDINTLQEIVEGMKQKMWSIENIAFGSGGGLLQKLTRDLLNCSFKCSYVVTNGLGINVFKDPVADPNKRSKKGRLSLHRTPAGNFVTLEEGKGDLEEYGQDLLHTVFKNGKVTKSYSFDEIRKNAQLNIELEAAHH
protocol.text: NMN fluorescence biochemical assay (stimulation of NMN synthesis by NAMPT)
applied.conditions: fold change of maximal activation compared to DMSO
Method: Certain compounds described herein were assayed for their ability to stimulate the synthesis of nicotinamide mononucleotide (NMN) by human enzyme NAMPT (full length). […] Fluorescence (Ex/Em=382/445 nm) was measured using an Envision plate reader. The potency measurements for the test compounds were quantified and represented as EC50 (concentration of a compound that gives half-maximal activation) and Emax (fold change of a compound's maximal activation compared to DMSO).
observable: Enzymatic Emax

[
  {
    "compound": "COC1CN(Cc2ccc3c(c2)[C@H](C)N(Cc2ccc4[nH]c(=O)oc4c2)C3=O)C1 (single isomer, unassigned)",
    "result": "B (3≥B>2)"
  },
  {
    "compound": "Cc1ccnc(C(C)(C)O)c1CC1c2ccccc2C(=O)N1Cc1ccc2[nH]nnc2c1 (stereo not drawn)",
    "result": "A (A>3)"
  },
  {
    "compound": "O=C1c2cnccc2CN1Cc1ccc(O)cc1",
    "result": "A (A>3)"
  },
  {
    "compound": "Cn1ncc(Cl)c1CC1c2cc(CN3CC4(COC4)C3)ccc2C(=O)N1CC1CC2(CNC(=O)O2)C1 (stereo not drawn)",
    "result": "B (3≥B>2)"
  },
  {
    "compound": "O=C1c2cccc(Br)c2CN1Cc1ccc(O)cc1",
    "result": "B (3≥B>2)"
  },
  {
    "compound": "Cc1ccnc(C#N)c1CC1c2ccc(F)cc2C(=O)N1CC1CC2(CNC(=O)O2)C1 (stereo not drawn)",
    "result": "B (3≥B>2)"
  },
  {
    "compound": "Cn1ncc(Cl)c1CC1c2cccc(F)c2C(=O)N1Cc1ccc2[nH]nnc2c1 (stereo not drawn)",
    "result": "A (A>3)"
  },
  {
    "compound": "O=C1c2ccccc2C(Cc2n[nH]cc2Cl)N1Cc1ccc2[nH]nnc2c1 (stereo not drawn)",
    "result": "B (3≥B>2)"
  }
]

State its Enzymatic Emax on human enzyme NAMPT (full length) (Homo sapiens, UniProt P43490): COc1ccc(CN2C(=O)c3ccccc3C2Cc2c(Cl)cnn2C)nc1 (stereo not drawn)
C (2≥C)

State its Enzymatic Emax on human enzyme NAMPT (full length) (Homo sapiens, UniProt P43490): Cn1c2ccccc2c(=O)n1Cc1ccc(O)cc1
A (A>3)

State its Enzymatic Emax on human enzyme NAMPT (full length) (Homo sapiens, UniProt P43490): O=C1c2ccccc2C(CC2CCCC2)N1Cc1ccc2[nH]c(=O)oc2c1 (stereo not drawn)
B (3≥B>2)

State its Enzymatic Emax on human enzyme NAMPT (full length) (Homo sapiens, UniProt P43490): Cc1ccnc(C#N)c1CC1c2cccc(F)c2C(=O)N1CC1CC2(CNC(=O)O2)C1 (stereo not drawn)
B (3≥B>2)

State its Enzymatic Emax on human enzyme NAMPT (full length) (Homo sapiens, UniProt P43490): CC1c2ccccc2C(=O)N1Cc1ccc(NC(=O)NCc2cn[nH]c2)cc1 (stereo not drawn)
C (2≥C)

====

The entries below come with measured EC50 values attached.
assay.target: human enzyme NAMPT (full length) (Homo sapiens)
Construct: human enzyme NAMPT (full length)
protocol.text: NMN fluorescence biochemical assay (stimulation of NMN synthesis by NAMPT)
applied.conditions: NMN synthesis by purified human NAMPT (100 nM); concentration giving half-maximal activation; read-out: Enzymatic EC50

Would you kindly share the measured EC50 for O=C1c2ccccc2C(Cc2cccnc2)N1Cc1ccc2[nH]c(=O)oc2c1 (centres unmarked) ?
0.5 to 5 µM

Would you kindly share the measured EC50 for CC(C)(C)c1ccc2c(c1)C(=O)N(Cc1ccc(O)cc1)C2=O ?
0.5 to 5 µM

Would you kindly share the measured EC50 for CC(=O)Nc1ccc(CN2Cc3ccccc3C2=O)cc1 ?
≥ 5 µM

Would you kindly share the measured EC50 for CC1c2cc(NC3CCOCC3)ccc2C(=O)N1Cc1ccc2[nH]c(=O)oc2c1 (centres unmarked) ?
0.5 to 5 µM

Would you kindly share the measured EC50 for Cc1ccccc1CC1c2ccccc2C(=O)N1Cc1ccc2[nH]c(=O)oc2c1 (centres unmarked) ?
< 0.5 µM

====

System: endogenous NAMPT in U2OS cells
protocol.text: Cellular NAD+ modulation assay (NAD/NADH-Glo, U2OS cells)
Assay type: cell-based
applied.conditions: Homo sapiens, 24 hours incubation, cellular NAD+
pEC50: −log10 of the molar value.
observable: pEC50

[
  {
    "compound": "Cn1nc(CN2CCC2)c(Cl)c1CC1c2ccccc2C(=O)N1CC1CC2(CNC(=O)O2)C1 (centres unmarked)",
    "observable": "pEC50",
    "result": "5.30 to 6.30"
  },
  {
    "compound": "COc1ccc(CN2C(=O)c3ccccc3C2Cc2c(C)ccnc2C#N)cn1 (centres unmarked)",
    "observable": "pEC50",
    "result": "5.30 to 6.30"
  },
  {
    "compound": "Cn1ncc(Cl)c1CC1c2ccccc2C(=O)N1CC1CC2(CNC(=O)N2)C1 (centres unmarked)",
    "observable": "pEC50",
    "result": "4.30 to 5.30"
  }
]

Would you kindly share the measured pEC50 for Cn1ncc(Cl)c1CC1c2ccccc2C(=O)N1CC1CC2(CNC(=O)S2)C1 (centres unmarked) ?
> 6.30

Would you kindly share the measured pEC50 for CN1CC(c2ccc3c(c2)C(Cc2c(Cl)cnn2C)N(Cc2ccc4[nH]nnc4c2)C3=O)C1 (centres unmarked) ?
4.30 to 5.30

Would you kindly share the measured pEC50 for Cc1nc(Cl)c(CC2c3ccccc3C(=O)N2CC2CC3(CNC(=O)O3)C2)n1C (centres unmarked) ?
5.30 to 6.30

Would you kindly share the measured pEC50 for COC1CC2(CC(CN3C(=O)c4ccccc4C3Cc3c(Cl)cnn3C)C2)C1 (centres unmarked) ?
5.30 to 6.30

Would you kindly share the measured pEC50 for Cn1ncc(Cl)c1CC1c2ccccc2C(=O)N1Cc1c[nH]c(=O)s1 (centres unmarked) ?
> 6.30

Would you kindly share the measured pEC50 for Cc1ccnc(C#N)c1CC1c2cccc(F)c2C(=O)N1Cc1ccc2[nH]nnc2c1 (centres unmarked) ?
> 6.30

Would you kindly share the measured pEC50 for Cn1ncc(Cl)c1CC1c2ccccc2C(=O)N1Cc1cn[nH]c1 (centres unmarked) ?
> 6.30

Would you kindly share the measured pEC50 for Cn1ncc(Cl)c1CC1c2cc(Br)ccc2C(=O)N1Cc1ccc2[nH]c(=O)oc2c1 (centres unmarked) ?
> 6.30

Would you kindly share the measured pEC50 for COc1ccc(CN2C(=O)c3ccccc3C2Cc2c(Cl)cnn2C)cn1 (centres unmarked) ?
5.30 to 6.30

Would you kindly share the measured pEC50 for Cn1ncc(Cl)c1CC1c2ccccc2C(=O)N1Cc1cnc(O)o1 (centres unmarked) ?
> 6.30

Entry source: patent US20260078130A1
